Measured self-cleavage kobs at 2500 uM GlcN6P, listed per entry.
B1: glmS ribozyme (parent)
chain: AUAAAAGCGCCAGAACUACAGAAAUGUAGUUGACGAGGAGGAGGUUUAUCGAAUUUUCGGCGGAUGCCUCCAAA

Variants of: B1
Assay Notes: self-cleavage kobs at 2500 uM GlcN6P; higher = faster cleavage; RNA array
Conditions: with glucosamine-6-phosphate
Variants at the floor of the assay were thinned out.
Observation Type: self-cleavage kobs at 2500 uM GlcN6P

1) AUAAAUGCGCCAGAACUACAGAAAUGUAGUGGACGAGGAGGAGGUUUAUCGAAUUUUCGGCGGAUGCCUCCAAA :: 7.42e-05 s⁻¹
2) AUAAAAGCGCCAGAACUACAGAAAUGUAGUUGACGAGGAUGAGAUUUAUCGAAUCUUCGGCGGAUGUCUCCAAA :: < 1e-05 s⁻¹
3) AUAAAAGCGCCAGAACUACAGAAAUGUAGUUGACGAGGAGGAGGCUUUUCGAAUUUUCGGCGGAUGCCUCCAAA :: 6.49e-05 s⁻¹
4) AUAAAAGCGCCAGAACUACAGAAAUGUAGUUGACGAGGAGGAGGUAUAUCCGAUUUUCGGCGGAUGCCUCCAAA :: < 1e-05 s⁻¹
5) AUAAAAGCGCCAGAACUACAGAAAUGUAGUGGACGAGGAGGAGGUUUAUCGAAUUUUAGGCGGAUGGCUCCAAA :: 6.38e-05 s⁻¹
6) AUAAAAGCGCCAGAAGUACAGAAAUGUAAUUGACGAGGAAGCGGUUUAUCGAAUUUUCGGCGGAUGCCUCCAAA :: < 1e-05 s⁻¹
7) AUAAAAGCGCCAGAACUACAGAAAUGUAGUUAACGAGGAGGAGGUUUAUCGAAUUUUCGGCGGAUGCCUCGAAA :: 0.00018 s⁻¹
8) AUAAAAGCGCCAGAACUACAGAAAUGUAGUUGAGGAGGAGGAGUUUUAUUGAAUUUUCGGCGGAUGCCUCUAAA :: < 1e-05 s⁻¹
9) AUAAAAGCGCCAGAACUACAGAAAUGUAGUUAACGAGGAGGAGGUUUAUCGAAUAUUCGGCGGAUGCCUCCAAA :: 0.00144 s⁻¹
10) AUAAAAGCUCCAGAACUACAGAAAUGUAGUUGACGAGGAAGAGGUUUAUCGAAUUUUCGGCGGAUGCCUCCAAA :: < 1e-05 s⁻¹
11) AUAAAAGCGUCAGAACUACAGAAAUGUAGUUGACGAGGCGAAGGUAUAUCGAAUUUUCGGCGGAUGCCUCCAAA :: < 1e-05 s⁻¹
12) AUAAAAGCGCCCGAACUACAGAAAUGUAGUUGACGAGGAGGAGGUUUAUCGAAUUUUUGGCGGAUGCCUUCAAA :: 7.09e-05 s⁻¹
13) AUAAAAGCGCCAGAACUACAGAAAUGUAGUUGACGAGGUGGUGGUUAAUCGAAUUUUCGGCGGAUGCCUCCAAA :: 0.0025 s⁻¹
14) AUAAAAGUGCCAGAUCUACAGAAAUGUAGUCGACGGGGAGGAGGUAUAUCGUAUUUUAGGCGGAUGUCUUCAAA :: < 1e-05 s⁻¹
15) AUAAAAGCGCCAGAACUACAGAAAUGUACUUGACGAGGAGGAGGUUUAUCGAAUUUUCGGCGGAUGCGUCCAAA :: 3.19e-05 s⁻¹
16) AUAAAAGGGCCAGAACUACAGAAAUGUAGUUUACGAGGAAGAGCUUUAUCGAAUUUUUGGCGGAUGCCUCCAAA :: < 1e-05 s⁻¹
17) AUAAAAGCGCCAGAACUACAGAAAUGUAGUUGACGAGGACAAGGUUUAUCGAAUUUUCGGCGGAUGCCUUCAAA :: 0.000861 s⁻¹
18) AUAAAAGCGCCAGAACUACAGAAAUGUAGUUGACGAGGAGGAGGUUUAUCGAAAUUUCGGCGGAUGCCACCAAA :: 0.000141 s⁻¹
19) AUAAAAGCGCCAAAACUACAGAAAUGUAGUUGACAAGGAGGAGGUUUAUCGAAUUUUCGGCGGAUGCCUCCAAA :: < 1e-05 s⁻¹
20) AUAAAAGAGCCAGAACUACAGAAAUGUAGUUGACGAGGAGGAGGUUUAUCGAAUUUUCCGCGGAUGGCUCCAAA :: < 1e-05 s⁻¹
21) AUAAAAGCGCCAGAACUACAGAAAUGUAGUUGACGAGGAGGAGGUUUAUGGACUUUUCGGCGGAUGGCUCCAAA :: 0.000336 s⁻¹
22) AUAAAAGCGCCCGAACUACAGAAAUGUAGUUGACGAGGAGGAGGUUUAUGGAAUUUUCGGCGGAUCCCUCCAAA :: 0.000103 s⁻¹
